Form field: Clearance of Human microsome (one value per entry).
- Experiment description: Human microsome stability assay
- Assay type: in vitro ADME
- Condition parameters: human liver microsomes 0.5 mg/mL, 37° C., pH 7.4, NADPH regenerating system
The answer is to be given in mL/min/kg; state only the numeric part.

{"Compound": "C[N+](C)(C)CCCNC(=O)c1ccc(C(F)(F)c2cc(Cl)nc(N3CCN(S(=O)(=O)c4ccc(N5C[C@H](N)CC5=O)cc4)CC3)c2)cc1 [Example 037]", "Clearance of Human microsome [mL/min/kg]": 6.66}
{"Compound": "CC(CN)NC(=O)[C@H]1CC[C@H](C(F)(F)c2cc(Cl)nc(N3CCN(S(=O)(=O)c4ccc(N5C[C@H](N)CC5=O)cc4)CC3)c2)CC1 (stereo partly drawn) [Example 008]", "Clearance of Human microsome [mL/min/kg]": 8.07}

Alright, here's another compound for you.
Recorded result, NCC(O)CNC(=O)c1cnc(C(F)(F)c2cc(Cl)nc(N3CCN(S(=O)(=O)c4ccc(N5C[C@H](N)CC5=O)cc4)CC3)c2)cn1 (stereo partly drawn) [Example 022] , Clearance of Human microsome: 6.15

###

This listing pairs compounds with measured log10 MIC.
- Tested on: Klebsiella pneumonia ATCC 43816
// units: µg/mL (pre-log); metric: MIC; scale: log10

{"Compound": "NCCCNC(=O)c1ccc(C(F)(F)c2cc(Cl)nc(N3CCN(S(=O)(=O)c4ccc(N5C[C@H](N)CC5=O)cc4)CC3)c2)nc1 [Example 026]", "Measured endpoint": "log10 MIC", "Test result": -0.11}
{"Compound": "NCCN(CCN)CCCNC(=O)[C@H]1CC[C@H](C(F)(F)c2cc(Cl)nc(N3CCN(S(=O)(=O)c4ccc(N5C[C@H](N)CC5=O)cc4)CC3)c2)CC1 [Example 047]", "Measured endpoint": "log10 MIC", "Test result": -0.52}
{"Compound": "NCC(O)CNC(=O)c1ccc(C(F)(F)c2cc(Cl)nc(N3CCN(S(=O)(=O)c4ccc(N5CC(N)CC5=O)cc4)CC3)c2)cc1 (centres unmarked) [Example 018]", "Measured endpoint": "log10 MIC", "Test result": -0.21}
{"Compound": "NCCNC(=O)c1ccc(C(F)(F)c2cc(Cl)nc(N3CCN(S(=O)(=O)c4ccc(N5CC(N)CC5=O)cc4)CC3)c2)cc1 (centres unmarked) [Example 017]", "Measured endpoint": "log10 MIC", "Test result": -0.35}

Hey, Klebsiella pneumonia ATCC 43816 data for NCC(O)CNC(=O)c1cnc(C(F)(F)c2cc(Cl)nc(N3CCN(S(=O)(=O)c4ccc(N5C[C@H](N)CC5=O)cc4)CC3)c2)cn1 (some centres unmarked) [Example 022] : log10 MIC came out at -0.15

Item NCCNCCNC(=O)c1ccc(C(F)(F)c2cc(Cl)nc(N3CCN(S(=O)(=O)c4ccc(N5C[C@H](N)CC5=O)cc4)CC3)c2)nc1 [Example 028] ; assay system Klebsiella pneumonia ATCC 43816; log10 MIC reported as 0.20

Form field log10 MIC for item CNCCCNC(=O)c1ccc(C(F)(F)c2cc(Cl)nc(N3CCN(S(=O)(=O)c4ccc(N5C[C@H](N)CC5=O)cc4)CC3)c2)cn1 [Example 029] on Klebsiella pneumonia ATCC 43816: 0.15

Assay Klebsiella pneumonia ATCC 43816, sample N[C@@H]1CC(=O)N(c2ccc(S(=O)(=O)N3CCN(c4cc(C(F)(F)[C@H]5CC[C@H](C(=O)NNC(=O)C6CCNCC6)CC5)cc(Cl)n4)CC3)cc2)C1 [Example 051] , log10 MIC read: 0.66

###

MIC values for the molecules below.
- System: Klebsiella pneumonia ATCC 43816
Just the number please, in µg/mL, no unit attached.

Look over these answered cases.
{"Molecule": "N[C@@H]1CC(=O)N(c2ccc(S(=O)(=O)N3CCN(c4cc(C(F)(F)[C@H]5CC[C@H](C(=O)NC6CNCC6O)CC5)cc(Cl)n4)CC3)cc2)C1 (stereo partly drawn)", "Scale unit": "µg/mL", "MIC": 1.1}
{"Molecule": "NCCN1CCN(C(=O)[C@H]2CC[C@H](C(F)(F)c3cc(Cl)nc(N4CCN(S(=O)(=O)c5ccc(N6C[C@H](N)CC6=O)cc5)CC4)c3)CC2)CC1", "Scale unit": "µg/mL", "MIC": 1.3}
{"Molecule": "NCCCNC(=O)C1CC2C(C1)C2C(F)(F)c1cc(Cl)nc(N2CCN(S(=O)(=O)c3ccc(N4C[C@H](N)CC4=O)cc3)CC2)c1 (stereo partly drawn)", "Scale unit": "µg/mL", "MIC": 0.55}

Measured on Klebsiella pneumonia ATCC 43816, `NCCNC(=O)c1cnc(C(F)(F)c2cc(Cl)nc(N3CCN(S(=O)(=O)c4ccc(N5C[C@H](N)CC5=O)cc4)CC3)c2)cn1` has a documented MIC of 0.69

Short answer on Klebsiella pneumonia ATCC 43816 for `NCCNCCNC(=O)[C@H]1CC[C@H](C(F)(F)c2cc(Cl)nc(N3CCN(S(=O)(=O)c4ccc(N5C[C@H](N)CC5=O)cc4)CC3)c2)CC1` , MIC: 1.1

// returns MIC for COC(CN)CNC(=O)[C@H]1CC[C@H](C(F)(F)c2cc(Cl)nc(N3CCN(S(=O)(=O)c4ccc(N5C[C@H](N)CC5=O)cc4)CC3)c2)CC1 (stereo partly drawn) with Klebsiella pneumonia ATCC 43816; value = 1.1

###

- System: Klebsiella pneumonia ATCC 43816
Friendly reminder: MIC below 2 µg/mL is 1 (yes), at or above is 0 (no).

Worked set:
{"Molecule": "COC(=O)[C@H]1CC[C@H](C(F)(F)c2cc(Cl)nc(N3CCN(S(=O)(=O)c4ccc(N5CC(N)CC5=O)cc4)CC3)c2)CC1 (stereo partly drawn)", "Class": "1 (yes)"}
{"Molecule": "CN1CC2(C1)CN(C(=O)[C@H]1CC[C@H](C(F)(F)c3cc(Cl)nc(N4CCN(S(=O)(=O)c5ccc(N6C[C@H](N)CC6=O)cc5)CC4)c3)CC1)C2", "Class": "0 (no)"}
{"Molecule": "N[C@@H]1CC(=O)N(c2ccc(S(=O)(=O)N3CCN(c4cc(C(F)(F)[C@H]5CC[C@H](C(=O)N[C@H]6CNC[C@H]6N)CC5)cc(Cl)n4)CC3)cc2)C1 (stereo in doubt)", "Class": "1 (yes)"}
{"Molecule": "NCCOCCNC(=O)[C@H]1CC[C@H](C(F)(F)c2cc(Cl)nc(N3CCN(S(=O)(=O)c4ccc(N5C[C@H](N)CC5=O)cc4)CC3)c2)CC1", "Class": "0 (no)"}
{"Molecule": "N[C@@H]1CC(=O)N(c2ccc(S(=O)(=O)N3CCN(c4cc(C(F)(F)c5ccc(C(=O)NCCCNCCO)nc5)cc(Cl)n4)CC3)cc2)C1", "Class": "1 (yes)"}

Query: I wonder whether NC1CC(=O)N(c2ccc(S(=O)(=O)N3CCN(c4cc(C(F)(F)c5ccc(C(=O)NCCCO)cc5)cc(Cl)n4)CC3)cc2)C1 (stereo not drawn) has MIC below 2 µg/mL. Can you tell?
Result: 1 (yes)

###

- System under test: Escherichia coli UDP-2,3-diacylglucosamine hydrolase (LpxH) (Escherichia coli (strain K12), UniProt P43341)
- Sequence (P43341 whole entry): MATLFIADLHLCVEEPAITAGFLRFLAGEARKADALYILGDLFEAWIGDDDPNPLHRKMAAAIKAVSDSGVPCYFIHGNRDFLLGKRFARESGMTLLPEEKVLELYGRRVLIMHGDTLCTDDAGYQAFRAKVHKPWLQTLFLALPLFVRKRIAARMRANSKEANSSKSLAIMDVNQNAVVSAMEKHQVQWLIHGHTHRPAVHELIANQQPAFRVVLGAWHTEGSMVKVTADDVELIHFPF
- Experiment description: Enzymatic IC50 assay of Escherichia coli LpxH (UMP/CMP-Glo luminescence)
- Type: biochemical
- Condition parameters: Enzymatic IC50 against Escherichia coli LpxH; read-out: IC50 (converted)
Threshold 9 nM. IC50 below it: Criterion met. IC50 at it or above: Criterion not met.

{"Compound": "COC(CN)CNC(=O)[C@H]1CC[C@H](C(F)(F)c2cc(Cl)nc(N3CCN(S(=O)(=O)c4ccc(N5C[C@H](N)CC5=O)cc4)CC3)c2)CC1 (stereo partly shown) [Example 076]", "Class": "Criterion met"}
{"Compound": "C[N+]1(CCN)CCN(C(=O)[C@H]2CC[C@H](C(F)(F)c3cc(Cl)nc(N4CCN(S(=O)(=O)c5ccc(N6C[C@H](N)CC6=O)cc5)CC4)c3)CC2)CC1 [Example 071]", "Class": "Criterion not met"}
{"Compound": "N[C@@H]1CC(=O)N(c2ccc(S(=O)(=O)N3CCN(c4cc(C(F)(F)[C@H]5CC[C@H](C(=O)NCC6CNC6)CC5)cc(Cl)n4)CC3)cc2)C1 [Example 002]", "Class": "Criterion met"}
{"Compound": "NCCCNC(=O)[C@H]1CC[C@H](C(F)(F)c2cc(Cl)nc(N3CCC(S(=O)(=O)c4ccc(N5C[C@H](N)CC5=O)cc4)CC3)c2)CC1 [Example 062]", "Class": "Criterion not met"}
{"Compound": "NCCCNC(=O)c1ccc(C(F)(F)c2cc(Cl)nc(N3CCN(S(=O)(=O)c4ccc(N5C[C@H](N)CC5=O)cc4)CC3)c2)nc1 [Example 026]", "Class": "Criterion not met"}

// next entry
Query: Dear reviewer, please state whether CN(C)CCCNC(=O)c1cnc(C(F)(F)c2cc(Cl)nc(N3CCN(S(=O)(=O)c4ccc(N5C[C@H](N)CC5=O)cc4)CC3)c2)cn1 [Example 023] has IC50 strictly beneath 9 nM.
Result: Criterion met
